The reported measurements were obtained from patent US8927500B2.

target: UniProt Q00987
Sequence (Q00987 1-125): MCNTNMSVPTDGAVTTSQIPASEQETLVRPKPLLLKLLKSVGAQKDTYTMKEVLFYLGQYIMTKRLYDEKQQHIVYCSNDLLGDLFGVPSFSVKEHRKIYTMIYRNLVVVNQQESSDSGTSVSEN
experiment-notes: Competitive fluorescence polarization assay for MDM2
Assay type: binding
measurement-setup: competitive FP assay, MDM2; read-out: Ki (MDM2)
pKi: −log10 of the molar value. Where a SMILES comes first, the peptide text is derived from it. Bridges are numbered along the chain shown (N, C = ends). [ ]: non-standard residue; d: D form. R8 = C=CCCCCCC[C@@](C)(N)C(=O)O; S5 = C=CCCC[C@](C)(N)C(=O)O; Sar = CNCC(=O)O
# key: entry, value: pKi

[
  {
    "molecule": "CCCC[C@H](NC(=O)C(C)(C)NC(=O)[C@H](C)NC(=O)[C@]1(C)CCCC=CCCCCCC[C@@](C)(NC(=O)[C@H](Cc2ccccc2)NC(=O)[C@@H](NC(=O)[C@H](CC(C)C)NC(C)=O)[C@@H](C)O)C(=O)N[C@@H](C)C(=O)N[C@@H](Cc2ccc(O)cc2)C(=O)N[C@@H](Cc2c[nH]c3ccccc23)C(=O)N[C@@H](C)C(=O)N[C@@H](CCC(N)=O)C(=O)N[C@@H](CC(C)C)C(=O)N1)C(=O)N[C@@H](C)C(N)=O (single isomer, unassigned) [compound 392]",
    "target": "UniProt Q00987",
    "observed-value": "> 8.00"
  }
]

Now examine the next entry.
Kindly state the measured pKi obtained for CC(=O)N[C@@H](CC(C)C)C(=O)N[C@H](C(=O)N[C@@H](Cc1ccccc1)C(=O)N[C@]1(C)CCCCCCC=CCCC[C@@](C)(C(=O)N[C@@H](C)C(=O)N[C@@H](C)C(=O)N(C)CC(=O)N[C@@H](C)C(=O)N[C@@H](C)C(=O)N[C@H](C)C(N)=O)NC(=O)[C@H](CC(C)C)NC(=O)[C@H](CCC(N)=O)NC(=O)[C@H](C)NC(=O)[C@H](Cc2c[nH]c3ccccc23)NC(=O)[C@H](Cc2ccc(O)cc2)NC(=O)[C@H](CCC(=O)O)NC1=O)[C@@H](C)O [compound 575] (Ac-LTF[R8]EYWAQL[S5]AA[Sar]AA[dA]-NH2; staple 4-11) with UniProt Q00987.
> 8.00
